The values you see were collected from patent US4992461A.

System: rats
Assay: Rat gastric emptying of a test meal
Format: in vivo, Male Charles River Rats, Crl: COBS, CD (SD) BR Strain
Conditions: 1.0 mg/kg ip, 30 min before test meal, 60 min after meal
Counter-ions that a name gives are not always drawn.
RESULT TYPE: % INCREASE IN GASTRIC EMPTYING (%)
Answer with a number only, understood to be in %.

Record COc1cc(N)c(Cl)cc1C(=O)NC1CCN(CCCOc2ccc(F)cc2)CC1OC (stereo not shown) [Cisapride, cisapride] , field % INCREASE IN GASTRIC EMPTYING: 9.8

Record COc1cc(N)c(Cl)cc1C(=O)NC[C@H]1CCN2CCC[C@@H]12 (relative stereo) [Example 7, dihydrochloride] , field % INCREASE IN GASTRIC EMPTYING: 3.1

Record CCN(CC)CCNC(=O)c1cc(Cl)c(N)cc1OC [Metoclopramide, metoclopramide] , field % INCREASE IN GASTRIC EMPTYING: 2.6

Record COc1cc(N)c(Cl)cc1C(=O)NC[C@@H]1CCN2CCC[C@@H]12 (relative stereo) [Example 5, dihydrochloride] , field % INCREASE IN GASTRIC EMPTYING: 2.5
